- assay_details: antifungal drug efflux pump blockers, triplex strains – S. cerevisiae, Nile Red, multiplex, primary screen (AID 485275);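 also: Nile Red retained in pooled yeast measured as flow cytometry median fluorescence; 0% = buffer negative control and 100% = Enniatin B positive control; higher means more Nile Red kept so more efflux inhibition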
- cond: S. cerevisiae Candida pump triplex, at 10 µM, hits give high values
In all, about 330,000 compounds went through this assay and about 1,400 (0.42%) were called active. The list comes from a sample in which actives are over-represented; it also holds close analogues and randomly drawn compounds.
Form field: inhibition (one value per entry).
The figure you give is taken to be in %; do not add the unit.

Sample CN(C)S(=O)(=O)c1cc(C(=O)Nc2ccn(C)n2)c(Cl)cc1Cl — what was its inhibition?
52.3

Sample O=C(Nc1nccs1)c1cc(S(=O)(=O)N2CCOCC2)c(Cl)cc1Cl — what was its inhibition?
-0.05

Sample Cn1nnnc1SCC(=O)Nc1ccccc1C(=O)NC1CC1 — what was its inhibition?
0

Sample Fc1ccccc1C(c1nnnn1Cc1ccc2c(c1)OCO2)N1CCN(Cc2ccccc2)CC1 (stereo not given) — what was its inhibition?
-0.02

Sample COc1ccc2sc(-c3ccccc3OC)c(-c3ccc(OCCN4CCCC4)cc3)c2c1 — what was its inhibition?
198

Sample CC1CCCCC1NC(=O)Cn1c(=O)cnc2ccccc21 (stereo not given) — what was its inhibition?
-0.23

Sample Cc1cc(C)c2[nH]c(=O)c(C(c3nnnn3Cc3ccc4c(c3)OCO4)N3CCCC3)cc2c1 (stereo not given) — what was its inhibition?
1.06
